Source: patent US20240117047A1

# TGT: T1, hROR1 with a single amino acid substitution at position 138 (glutamic acid to lysine) (human, UniProt Q01973 30-406)
# T1 construct: Recombinant mutant of the hROR1 extracellular domain; also called hROR1 E138K
# PROTOCOL NOTES: binding to point-mutated hROR1
MEASUREMENT KIND: binding result

Below: 4 binders and their reported binding result.
BINDER	OBSERVED RESULT
UC-103 (antibody, V domains shown, Mouse-derived anti-hROR1 mAb, detected with anti-mouse IgG; also called UC-103 mAb) VH: EIQLQQSGPVLVKPGASVKVSCKASGYAFTAYNIHWVRQSHGKRLEWIGSFDPYDGGSSYNQKFKDKATLTVDKSSTTAYMHLNSLTSEDSAVYYCARGWYYFDYWGHGTTLTVSS VL: DVQITQSPSYLAASPGETITINCRASKSISKYLAWYQEKPGKTNKLLIYSGSTLQSGIPSRFRGSGSGTDFTLTISSLEPEDFAMYYCQQHDESPYTFGEGTKLEIKR	no binding
UC-105 (antibody, V domains shown, Mouse-derived anti-hROR1 mAb, detected with anti-mouse IgG) VH: EVKLVESGGGLVQPGGSRKLSCAASGFTFSSYGMHWIRQTPDKGLEWVAYISSNSDHIFYTDTVKGRFTISRDNAKNTLFLQMTSLRSEDTAMYYCASRMDYWGQGTSVTVSS VL: DIQMTQTTSSLSASLGDRVTISCRASQDISNHLNWYQQKPDGTVKLLIYYTSRLHSGVPSRFSGSGSGTDYSLTISNLEQGDIATYFCQQGSTLPYTFGGGTKLEIKR	no binding
UC-104 (antibody, V domains shown, Mouse-derived anti-hROR1 mAb, detected with anti-mouse IgG; also called UC-104 mAb) VH: EVQLLETGGGLVQPGGSRKLSCAASGFTFSNYGMHWVRQAPGKGLEWVAHISRYSDTIYYADAVKGRFTISRDNAKNTLFLQMTTLRSEDTAIYYCTSAMDYWGQGTSVTVSS VL: DIQMTQTTSSLSASLGDRVTISCRASQDISNYLNWFQQKPDGTIKLLIYYTSRLHSGVPSRFSGSGSGTDYSLTISNLEQEDIATYFCQQGNTLPFTFGSGTKLEIKR	no binding
UC-102 (antibody, V domains shown, Mouse-derived anti-hROR1 mAb, detected with anti-mouse IgG; also called UC-102 mAb) VH: DVHLQESGPGLVKPSQSLSVTCTVTGYSITGSYSWNWIRQFPGNKLEWMGYIHSSGTTNYNPSLKSRISFTRDTSKNQLFLQLNSVTTEDTATYYCTRGFAYWGQGTLVTVSA VL: NIVMTQSPSSMSASLGDRITITCQATQDIVKNLNWYQQKPGKPPSFLIYYTTELAEGVPSRFSGSGSGSDYSLTISNLESEDFADYYCLQFYEFPPTFGAGTKLELKR	no binding

# ---- query binder ----
[in] Fill in the blank: the reported binding result of UC-101 (antibody, V domains shown, Mouse-derived anti-hROR1 mAb, detected with anti-mouse IgG; also called UC-101 mAb) VH: EVQLLETGGGLVQPGGSRKLSCVASGFSFSSYGMHWVRQAPEKGLEWVAYIGGTSNTIYFADTVKGRFTISRDNAKNTLFLQMASLRSEDTAMYYCARTNLLGMDYWGQGTSVTVSS VL: QIVLTQSPTIMSASPGEKVTMTCSASSSVSDMYWYQQKPGSSPRLLIYDTSNLASGVPVRFSGSGSGTSYSLTISRMEAEDAATYYCQQWISYTFGGGTKLEIKR is ____.
[out] no binding
